FYI, the data here is from ChEMBL document CHEMBL1833827.

Documented MIC across a set of compounds
# Tested on: Nakaseomyces glabratus
# Protocol Text: Antifungal activity against Candida glabrata clinical isolate (Anadolu university) by NCCLS M27-A2 microbroth dilution method
# Type: functional

{"Compound": "Clc1ccc(C2=Nn3c(CCC4CCCCC4)nnc3SC2)cc1", "MIC, µg/mL": 40}
{"Compound": "Oc1ccc(CCc2nnc3n2N=C(c2ccccc2)CS3)cc1", "MIC, µg/mL": 180}
{"Compound": "Oc1ccc(CCc2nnc3n2N=C(c2ccc(F)cc2)CS3)cc1", "MIC, µg/mL": 370}
{"Compound": "O=[N+]([O-])c1ccc(C2=Nn3c(CCc4ccc(O)cc4)nnc3SC2)cc1", "MIC, µg/mL": 90}
{"Compound": "CC(=O)N1CCN(c2ccc(OCC3COC(Cn4ccnc4)(c4ccc(Cl)cc4Cl)O3)cc2)CC1 (stereo unspecified) [KETOCONAZOLE]", "MIC, µg/mL": 7}
{"Compound": "O=[N+]([O-])c1ccc(C2=Nn3c(CCC4CCCCC4)nnc3SC2)cc1", "MIC, µg/mL": 90}
{"Compound": "Oc1ccc(CCc2nnc3n2N=C(c2ccc(Cl)cc2)CS3)cc1", "MIC, µg/mL": 750}
{"Compound": "Cc1ccc(C2=Nn3c(CCc4ccc(O)cc4)nnc3SC2)cc1", "MIC, µg/mL": 750}
{"Compound": "c1ccc(C2=Nn3c(CCC4CCCCC4)nnc3SC2)cc1", "MIC, µg/mL": 90}
{"Compound": "Cc1ccc(C2=Nn3c(CCC4CCCCC4)nnc3SC2)cc1", "MIC, µg/mL": 180}
{"Compound": "Fc1ccc(C2=Nn3c(CCC4CCCCC4)nnc3SC2)cc1", "MIC, µg/mL": 90}

* * *

# Tested on: Pichia kudriavzevii
# Protocol Text: Antifungal activity against Candida krusei NRRL Y-7179 by NCCLS M27-A2 microbroth dilution method
# Assay type: functional
Experimental Readout: MIC

{"Compound": "Clc1ccc(C2=Nn3c(CCC4CCCCC4)nnc3SC2)cc1", "Measured Result": "370 µg/mL"}
{"Compound": "Oc1ccc(CCc2nnc3n2N=C(c2ccc(Cl)cc2)CS3)cc1", "Measured Result": "750 µg/mL"}
{"Compound": "Oc1ccc(CCc2nnc3n2N=C(c2ccc(F)cc2)CS3)cc1", "Measured Result": "180 µg/mL"}
{"Compound": "Oc1ccc(CCc2nnc3n2N=C(c2ccccc2)CS3)cc1", "Measured Result": "370 µg/mL"}
{"Compound": "Cc1ccc(C2=Nn3c(CCc4ccc(O)cc4)nnc3SC2)cc1", "Measured Result": "370 µg/mL"}
{"Compound": "O=[N+]([O-])c1ccc(C2=Nn3c(CCc4ccc(O)cc4)nnc3SC2)cc1", "Measured Result": "180 µg/mL"}
{"Compound": "c1ccc(C2=Nn3c(CCC4CCCCC4)nnc3SC2)cc1", "Measured Result": "180 µg/mL"}
{"Compound": "Cc1ccc(C2=Nn3c(CCC4CCCCC4)nnc3SC2)cc1", "Measured Result": "180 µg/mL"}
{"Compound": "CC(=O)N1CCN(c2ccc(OCC3COC(Cn4ccnc4)(c4ccc(Cl)cc4Cl)O3)cc2)CC1 (stereo unspecified)", "Measured Result": "3 µg/mL"}
{"Compound": "Fc1ccc(C2=Nn3c(CCC4CCCCC4)nnc3SC2)cc1", "Measured Result": "90 µg/mL"}
{"Compound": "O=[N+]([O-])c1ccc(C2=Nn3c(CCC4CCCCC4)nnc3SC2)cc1", "Measured Result": "180 µg/mL"}

* * *

# Test system: Candida albicans
# Protocol Text: Antifungal activity against Candida albicans ATCC 90028 by NCCLS M27-A2 microbroth dilution method
# Assay type: functional
Documented log10(MIC) across a set of molecules
Experimental Readout: log10(MIC) (log10 of the value in µg/mL)

{"Molecule": "Cc1ccc(C2=Nn3c(CCC4CCCCC4)nnc3SC2)cc1", "log10(MIC)": 2.26}
{"Molecule": "Oc1ccc(CCc2nnc3n2N=C(c2ccc(F)cc2)CS3)cc1", "log10(MIC)": 3.18}
{"Molecule": "c1ccc(C2=Nn3c(CCC4CCCCC4)nnc3SC2)cc1", "log10(MIC)": 1.95}
{"Molecule": "Clc1ccc(C2=Nn3c(CCC4CCCCC4)nnc3SC2)cc1", "log10(MIC)": 1.60}
{"Molecule": "Oc1ccc(CCc2nnc3n2N=C(c2ccc(Cl)cc2)CS3)cc1", "log10(MIC)": 2.88}
{"Molecule": "Cc1ccc(C2=Nn3c(CCc4ccc(O)cc4)nnc3SC2)cc1", "log10(MIC)": 2.88}
{"Molecule": "Fc1ccc(C2=Nn3c(CCC4CCCCC4)nnc3SC2)cc1", "log10(MIC)": 1.95}
{"Molecule": "O=[N+]([O-])c1ccc(C2=Nn3c(CCc4ccc(O)cc4)nnc3SC2)cc1", "log10(MIC)": 1.95}
{"Molecule": "CC(=O)N1CCN(c2ccc(OCC3COC(Cn4ccnc4)(c4ccc(Cl)cc4Cl)O3)cc2)CC1 (stereo unspecified)", "log10(MIC)": 1.48}
{"Molecule": "O=[N+]([O-])c1ccc(C2=Nn3c(CCC4CCCCC4)nnc3SC2)cc1", "log10(MIC)": 1.95}
{"Molecule": "Oc1ccc(CCc2nnc3n2N=C(c2ccccc2)CS3)cc1", "log10(MIC)": 1.90}
